Origin of values: patent US20080227704A1

- Target system: T1, recombinant purified mouse CXCL13 (mouse, UniProt O55038 22-109, biotinylated in the ELISA of Example 1.1.A.1 (sites not given); unlabelled in Biacore)
- T1 sequence: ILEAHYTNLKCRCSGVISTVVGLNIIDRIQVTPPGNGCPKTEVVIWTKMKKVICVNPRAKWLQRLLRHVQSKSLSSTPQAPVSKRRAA
- Assay details: cell-based or functional assay
As shown below, each of these binders has a reported Average Kb (nM) Chemotaxis Assay value.
Report as a plain number; the unit nM is understood.

# example entries with known answers
XW25-5D11-4F3-3D11 (antibody, V domains shown, Mouse anti-mouse CXCL13 monoclonal antibody purified from hybridoma) VH: EVQVQQSGAELVRPGSSVKMSCKTSGYTFTNYGIIWVKQRPGQGLEWIGYIYIGKGYTEYNEKFKGKATLTSDTSSSTVYMQLSSLTSEDSAIYFCARGAHYYGNAMDYWDQGTSVTVSS VL: DIQMTQTTSSLSASLGDRVTISCRSSQDISNFLNWYQQRPDGTVKLLIYYTSRLHSGVPSRFSGSGSGTDYSLTISNLEQEDIATYFCQQGDTLPWTFGGGTKLEIKR ... 18.9
XW25-2C4-4H8 (antibody, V domains shown, Mouse anti-mouse CXCL13 monoclonal antibody purified from hybridoma) VH: QVQLQQPGTELVKPGASVKLSCKASGYNFATYWMHWVKQRPGQGLEWIGNINPSDGGTNFNEKFNNKATLTVDKSSSTAYMQLSSLTSEDSAVYYCAKWGGHYVLYWYFDVWGTGTTVTVSS VL: DIVLTQSPATLSVTPGDSVSLSCRASQSISSNLHWYQQKSHESPRLLITYASQSISGIPSRFSGSGSGTDFTLSINSVESEDVGVYFCQQSDSWPLTFGAGTKLELKR ... 23

Task: Requested read-out: Average Kb (nM) Chemotaxis Assay. Entry: XW25-4F2-5D2 (antibody, V domains shown, Mouse anti-mouse CXCL13 monoclonal antibody from hybridoma) VH: QVQLQQPGTELVKPGASVKLSCKASGYNFPTYWMHWVKQRPGQGLEWIGNINPSDGGTNFNEKFNNKATLTVDKSSSTAYMQLSSLTSEDSAVYYCAKWGGHYVLYWYFDVWGTGTTVTVSS VL: DIVLTQSPATLSVTPGDSVSLSCRASQSISNNLHWYQQKSHESPRLLITYASQSISGIPSRFSGSGSGTDFTLSINSVESEDVGVYFCQQSDSWPLTFGAGTKLELKR
Output: 16

Task: For the binder shown here, XW25-6A2-2F10 (antibody, V domains shown, Mouse anti-mouse CXCL13 monoclonal antibody purified from hybridoma) VH: QVQLQQPGTELVKPGASVKLSCKASGYNFATYWVHWVKQRPGQGLEWIGNINPSDGGTSYNEKFSKKATLTVDKSSSTAYMELSSLTSEDSAVYYCAKWGGHYVLYWSFDVWGTGTTVTVSS VL: DIVLTQSPATLSVTPGDSVSLSCRASQSISNNLHWYQQRSHESPRLIITHVSQSISGIPSRFSGSGSGTDFIFSINSVESEDFGVYFCQQSNSWPLTFGAGTKLELKR , give the reported Average Kb (nM) Chemotaxis Assay.
Output: 8.12
